# measurement.target: PTPN1 (i.e., PTP1B) (Homo sapiens, UniProt P18031)
value.type: IC50

| compound | experimental.result |
| --- | --- |
| O=C1CN(c2c(O)ccc(-c3cnn(CC4CC5CCC(C4)N5C(=O)C4CC4)c3)c2F)S(=O)(=O)N1 (centres unmarked) | ≤ 1 µM |
| O=C1CN(c2c(O)ccc(-c3cc(N4CCC4)n[nH]3)c2F)S(=O)(=O)N1 | ≤ 1 µM |
| Nc1nc2ccc(-c3ccc(O)c(N4CC(=O)NS4(=O)=O)c3F)cc2o1 | ≤ 1 µM |
| O=C1CN(c2c(O)ccc(-c3cc(C4CCCCC4)n[nH]3)c2F)S(=O)(=O)N1 | ≤ 1 µM |
| CC1CCC(n2cc(-c3ccc(O)c(N4CC(=O)NS4(=O)=O)c3F)cn2)CC1 (centres unmarked) | ≤ 1 µM |
| O=C1CN(c2c(O)ccc(-c3cnn(Cc4cccc(F)c4)c3)c2F)S(=O)(=O)N1 | ≤ 1 µM |
| CC1CC(c2ccc(O)c(N3CC(=O)NS3(=O)=O)c2F)CN1 (centres unmarked) | ≤ 1 µM |
| O=C1CN(c2c(O)ccc(-c3cnn(C4CC5(CC5)C4)c3)c2F)S(=O)(=O)N1 | ≤ 1 µM |
| O=C1CN(c2c(O)ccc(-c3cnn(CC4(O)CCC4)c3)c2F)S(=O)(=O)N1 | ≤ 1 µM |
| CC(C)CCn1cc(-c2ccc(O)c(N3CC(=O)NS3(=O)=O)c2F)c(=O)[nH]1 | ≤ 1 µM |
| O=C1CN(c2c(O)ccc(-c3ccc4[nH]ncc4c3)c2F)S(=O)(=O)N1 | ≤ 1 µM |
| O=C1CN(c2c(O)ccc(C3=CCN(S(=O)(=O)C4CC4)CC3)c2F)S(=O)(=O)N1 | ≤ 1 µM |
| O=C1CN(c2c(O)ccc(-c3cc(C4CC4)n(CC(F)F)n3)c2F)S(=O)(=O)N1 | ≤ 1 µM |
| O=C1CN(c2c(O)ccc(C3=CC(CCC4CC4)NC3)c2F)S(=O)(=O)N1 (centres unmarked) | ≤ 1 µM |
| Cn1cc(-c2ccc(O)c(N3CC(=O)NS3(=O)=O)c2F)c(C(F)(F)F)n1 | ≤ 1 µM |
| O=C1CN(c2c(O)ccc(-c3cnn(C(F)F)c3)c2F)S(=O)(=O)N1 | ≤ 1 µM |
| O=C1CN(c2c(O)ccc(-c3ccc(OCc4ccccc4)nc3)c2F)S(=O)(=O)N1 | ≤ 1 µM |

---

# measurement.target: PTPN2 (i.e., TC-PTP) (Homo sapiens)
# Sequence (P17706 1-415): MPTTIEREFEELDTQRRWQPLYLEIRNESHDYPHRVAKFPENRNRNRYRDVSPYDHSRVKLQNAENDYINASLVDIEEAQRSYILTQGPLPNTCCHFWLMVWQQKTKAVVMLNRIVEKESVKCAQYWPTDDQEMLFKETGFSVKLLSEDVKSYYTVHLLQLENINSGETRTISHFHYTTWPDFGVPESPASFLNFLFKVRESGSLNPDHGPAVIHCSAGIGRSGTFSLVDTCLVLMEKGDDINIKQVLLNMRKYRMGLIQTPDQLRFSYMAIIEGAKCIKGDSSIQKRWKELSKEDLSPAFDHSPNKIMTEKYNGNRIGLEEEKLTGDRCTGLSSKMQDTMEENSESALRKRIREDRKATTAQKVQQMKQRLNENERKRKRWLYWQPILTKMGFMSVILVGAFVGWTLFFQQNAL
pIC50: −log10 of the molar value.
value.type: pIC50

| substance.smiles | measurement.target | value.type | experimental.result |
| --- | --- | --- | --- |
| O=C1CN(c2c(O)ccc(-c3cn(-c4ccc(C(F)(F)F)cc4)cn3)c2F)S(=O)(=O)N1 | PTPN2 (i.e., TC-PTP) (Homo sapiens) | pIC50 | ≥ 6.00 |
| CCC(CC)n1cnc(-c2ccc(O)c(N3CC(=O)NS3(=O)=O)c2F)c1 | PTPN2 (i.e., TC-PTP) (Homo sapiens) | pIC50 | ≥ 6.00 |
| CC(C)Cn1cc(-c2ccc(O)c(N3CC(=O)NS3(=O)=O)c2F)cn1 | PTPN2 (i.e., TC-PTP) (Homo sapiens) | pIC50 | ≥ 6.00 |
| O=C1CN(c2c(O)ccc(-c3coc(-c4ccccc4)n3)c2F)S(=O)(=O)N1 | PTPN2 (i.e., TC-PTP) (Homo sapiens) | pIC50 | ≥ 6.00 |
| CC(C)(C)n1cc(-c2ccc(O)c(N3CC(=O)NS3(=O)=O)c2F)cn1 | PTPN2 (i.e., TC-PTP) (Homo sapiens) | pIC50 | ≥ 6.00 |
| O=C1CN(c2c(O)ccc(-c3cn(C4CCOCC4)cn3)c2F)S(=O)(=O)N1 | PTPN2 (i.e., TC-PTP) (Homo sapiens) | pIC50 | ≥ 6.00 |
| Cc1cc(-c2ccc(O)c(N3CC(=O)NS3(=O)=O)c2F)sn1 | PTPN2 (i.e., TC-PTP) (Homo sapiens) | pIC50 | ≥ 6.00 |
| CC(C)Cc1cc(-c2ccc(O)c(N3CC(=O)NS3(=O)=O)c2F)[nH]n1 | PTPN2 (i.e., TC-PTP) (Homo sapiens) | pIC50 | ≥ 6.00 |

---

# measurement.target: PTPN1 (i.e., PTP1B) (Homo sapiens, UniProt P18031)
# Sequence (P18031 1-435): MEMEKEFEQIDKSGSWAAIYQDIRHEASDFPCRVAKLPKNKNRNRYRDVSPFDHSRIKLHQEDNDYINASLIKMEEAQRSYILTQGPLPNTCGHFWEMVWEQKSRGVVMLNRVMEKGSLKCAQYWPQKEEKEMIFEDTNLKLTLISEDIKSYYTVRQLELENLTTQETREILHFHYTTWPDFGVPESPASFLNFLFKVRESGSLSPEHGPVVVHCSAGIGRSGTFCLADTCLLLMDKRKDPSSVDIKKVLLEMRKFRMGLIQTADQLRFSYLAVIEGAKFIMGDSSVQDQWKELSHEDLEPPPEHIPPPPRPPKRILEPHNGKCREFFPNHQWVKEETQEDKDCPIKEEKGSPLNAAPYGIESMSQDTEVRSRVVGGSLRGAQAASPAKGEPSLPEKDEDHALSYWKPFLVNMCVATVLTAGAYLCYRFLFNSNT

| substance.smiles | IC50 |
| --- | --- |
| O=C1CN(c2c(O)ccc(-c3ccc(NS(=O)(=O)C4CCC4)cc3)c2F)S(=O)(=O)N1 | ≤ 1 µM |
| O=C1CN(c2c(O)ccc(-c3cc(C4(C(F)F)CC4)n[nH]3)c2F)S(=O)(=O)N1 | ≤ 1 µM |
| O=C1CN(c2c(O)ccc(-c3cc(CCC4CCC4)n[nH]3)c2F)S(=O)(=O)N1 | ≤ 1 µM |

---

Target chain: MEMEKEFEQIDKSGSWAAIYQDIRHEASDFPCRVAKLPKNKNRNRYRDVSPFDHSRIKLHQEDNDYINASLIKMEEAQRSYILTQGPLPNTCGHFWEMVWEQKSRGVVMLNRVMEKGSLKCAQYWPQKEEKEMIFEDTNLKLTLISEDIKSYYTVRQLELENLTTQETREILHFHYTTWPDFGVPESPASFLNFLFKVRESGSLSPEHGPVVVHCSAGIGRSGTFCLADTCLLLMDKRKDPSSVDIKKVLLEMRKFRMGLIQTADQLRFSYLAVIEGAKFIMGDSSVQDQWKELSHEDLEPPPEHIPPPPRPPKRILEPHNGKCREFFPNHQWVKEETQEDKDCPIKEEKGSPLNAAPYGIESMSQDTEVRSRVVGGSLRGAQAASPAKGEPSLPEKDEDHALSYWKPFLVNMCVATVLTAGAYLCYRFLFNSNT

| substance.smiles | IC50 |
| --- | --- |
| O=C1CN(c2c(O)ccc(-c3cnn(C4CC5(CCC5)C4)c3)c2F)S(=O)(=O)N1 | ≤ 1000 nM |
| O=C1CN(c2c(O)ccc(-c3cnn(CC4(Cl)CCC4)c3)c2F)S(=O)(=O)N1 | ≤ 1000 nM |
| Cc1n[nH]c(C)c1-c1ccc(O)c(N2CC(=O)NS2(=O)=O)c1F | > 1000 nM |
| O=C1CN(c2c(O)ccc(-c3ccn(CC4CCCCC4)c3)c2F)S(=O)(=O)N1 | ≤ 1000 nM |
| Cc1c(-c2cnn(CCC(C)C)c2)ccc(O)c1N1CC(=O)NS1(=O)=O | ≤ 1000 nM |
| O=C1CN(c2c(O)ccc(C3=CCN(CC(F)F)C3)c2F)S(=O)(=O)N1 | ≤ 1000 nM |
| CC1(C)C=C(c2ccc(O)c(N3CC(=O)NS3(=O)=O)c2F)CN1 | > 1000 nM |
| O=C1CN(c2c(O)ccc(-c3cn(-c4cccc(F)c4)cn3)c2F)S(=O)(=O)N1 | ≤ 1000 nM |

---

Collected IC50 values appear next to each entry.
# measurement.target: PTPN1 (i.e., PTP1B) (Homo sapiens)
# test.method.notes: Phosphatase activity assay (DiFMUP substrate), PTP1B
# Type: biochemical
# condition.summary: compounds binned ≤1 uM or >1 uM

| molecule | measurement.target | IC50 |
| --- | --- | --- |
| O=C1CN(c2c(O)ccc(-c3cc(N4CC(c5ccccc5)C4)n[nH]3)c2F)S(=O)(=O)N1 | PTPN1 (i.e., PTP1B) (Homo sapiens) | ≤ 1000 nM |
| O=C1CN(c2c(O)ccc(-c3c(F)ccc4[nH]ncc34)c2F)S(=O)(=O)N1 | PTPN1 (i.e., PTP1B) (Homo sapiens) | ≤ 1000 nM |
| O=C1CN(c2c(O)ccc(-c3cn(C4CC4)[nH]c3=O)c2F)S(=O)(=O)N1 | PTPN1 (i.e., PTP1B) (Homo sapiens) | ≤ 1000 nM |
| O=C1CN(c2c(O)ccc(-c3cc(N4CCOCC4)n[nH]3)c2F)S(=O)(=O)N1 | PTPN1 (i.e., PTP1B) (Homo sapiens) | ≤ 1000 nM |
| COC(=O)n1nc(C2CC2)cc1-c1ccc(O)c(N2CC(=O)NS2(=O)=O)c1F | PTPN1 (i.e., PTP1B) (Homo sapiens) | ≤ 1000 nM |
| O=C1CN(c2c(O)ccc(-c3ccc(-c4ccccc4)nc3)c2F)S(=O)(=O)N1 | PTPN1 (i.e., PTP1B) (Homo sapiens) | ≤ 1000 nM |
| CC(F)(F)n1cc(-c2ccc(O)c(N3CC(=O)NS3(=O)=O)c2F)cn1 | PTPN1 (i.e., PTP1B) (Homo sapiens) | ≤ 1000 nM |
| CC(C)CCS(=O)(=O)N1CC=C(c2ccc(O)c(N3CC(=O)NS3(=O)=O)c2F)C1 | PTPN1 (i.e., PTP1B) (Homo sapiens) | ≤ 1000 nM |
| CC(C)CC1C=C(c2ccc(O)c(N3CC(=O)NS3(=O)=O)c2F)CN1 (centres unmarked) | PTPN1 (i.e., PTP1B) (Homo sapiens) | ≤ 1000 nM |
| O=C1CN(c2c(O)ccc(-c3ccc4cccnc4c3)c2F)S(=O)(=O)N1 | PTPN1 (i.e., PTP1B) (Homo sapiens) | ≤ 1000 nM |
| O=C1CN(c2c(O)ccc(-c3c[nH]nc3F)c2F)S(=O)(=O)N1 | PTPN1 (i.e., PTP1B) (Homo sapiens) | ≤ 1000 nM |
| N#CC1(c2cc(-c3ccc(O)c(N4CC(=O)NS4(=O)=O)c3F)[nH]n2)CC1 | PTPN1 (i.e., PTP1B) (Homo sapiens) | ≤ 1000 nM |
| N#Cc1cc(F)cc(-n2cnc(-c3ccc(O)c(N4CC(=O)NS4(=O)=O)c3F)c2)c1 | PTPN1 (i.e., PTP1B) (Homo sapiens) | ≤ 1000 nM |
| O=C1CN(c2c(O)ccc(-c3cn(Cc4cccnc4)cn3)c2F)S(=O)(=O)N1 | PTPN1 (i.e., PTP1B) (Homo sapiens) | ≤ 1000 nM |
| O=C1CN(c2c(O)ccc(C3=CCN(CC(F)(F)F)CC3)c2F)S(=O)(=O)N1 | PTPN1 (i.e., PTP1B) (Homo sapiens) | ≤ 1000 nM |
| CCC1C=C(c2ccc(O)c(N3CC(=O)NS3(=O)=O)c2F)CNC1 (centres unmarked) | PTPN1 (i.e., PTP1B) (Homo sapiens) | ≤ 1000 nM |
| C[C@@H]1C=C(c2ccc(O)c(N3CC(=O)NS3(=O)=O)c2F)CN1 | PTPN1 (i.e., PTP1B) (Homo sapiens) | ≤ 1000 nM |
